- Test system: viable cells in culture
- Experiment Description: Cell viability assay at 10 μM (CellTiter-Glo, Table VII);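 note: graded A 0-20%; B 21-40%; C 41-60%; D over 60% viable cells relative to DMSO control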
- Format: cell-based
- Test Conditions: RKO; compound 10 μM; 72 h; read-out: percentage (%) of viable cells RKO
- Procedure: The CellTiter-Glo® Luminescent Cell Viability Assay (Promega Corporation. Madison, Wis., USA) is method a determining the number of viable cells in culture based on quantification of the ATP being present which is an indicator of metabolically active cells was used according to manufacturers protocol. […] Percentage of inhibition was calculated compared to ATP amount of DMSO control.
Measure Name: viability at 10 µM

Prompt: Endpoint output: viability at 10 µM of COc1cc2c(Oc3ccc(NS(=O)(=O)c4ccc(F)cc4F)cc3F)ccnc2cc1OCCCN1CCCC(C)C1 (stereo not shown) [Example 47] . Value?
Completion: 0 to 20%

Prompt: Field entry: COc1cc2c(Oc3ccc(NS(=O)(=O)c4cccc5ccccc45)cc3F)ccnc2cc1OCCCN1CCCC(C)C1 (stereo not shown) [Example 58]
Completion: 0 to 20%

Prompt: Field entry: COc1cc2c(Oc3ccc(NS(=O)(=O)c4cc(Cl)cc(Cl)c4OC)cc3F)ccnc2cc1OCCCN1CCCC(C)C1 (stereo not shown) [Example 75]
Completion: 0 to 20%

Prompt: Field entry: COc1cc2c(Oc3ccc(NS(=O)(=O)c4ccc(F)cc4F)cc3F)ccnc2cc1OCCCN1CCN(C)CC1 [Example 16]
Completion: 21 to 40%

Prompt: Field entry: COc1cc2c(Oc3ccc(NS(=O)(=O)c4ccccc4Br)cc3F)ccnc2cc1OCCCN1CCN(C)CC1 [Example 19]
Completion: 0 to 20%

Prompt: Field entry: COc1cc2c(Oc3ccc(NS(=O)(=O)c4cccc(C)c4)cc3F)ccnc2cc1OCCCN1CCCC(C)C1 (stereo not shown) [Example 70]
Completion: 0 to 20%

Prompt: Field entry: COc1cc2c(Oc3ccc(NS(=O)(=O)c4cc(F)ccc4F)cc3F)ccnc2cc1OCCCN1CCN(C)CC1 [Example 12]
Completion: 0 to 20%

Prompt: Field entry: COc1cc2c(Oc3ccc(NS(=O)(=O)c4ccc(Cl)s4)cc3F)ccnc2cc1OCCCN1CCCC(C)C1 (stereo not shown) [Example 63]
Completion: > 60%

Prompt: Field entry: COc1cc2c(Oc3ccc(NS(=O)(=O)c4cccc(C#N)c4)cc3F)ccnc2cc1OCCCN1CCCC(C)C1 (stereo not shown) [Example 41]
Completion: 0 to 20%

Prompt: Field entry: COc1cc2c(Oc3ccc(NS(=O)(=O)c4ccccc4C)cc3F)ccnc2cc1OCCCN1CCN(C)CC1 [Example 28]
Completion: 0 to 20%

Prompt: Field entry: COc1cc2c(Oc3ccc(NS(=O)(=O)c4c(F)cccc4F)cc3F)ccnc2cc1OCCCN1CCOCC1 [Example 77]
Completion: 21 to 40%

Prompt: Field entry: COc1cc2c(Oc3cccc(NS(=O)(=O)c4ccccc4C(F)(F)F)c3)ccnc2cc1OCCCN1CCN(C)CC1 [Example 102]
Completion: 21 to 40%

Prompt: Field entry: COc1cc2c(Oc3ccc(NS(=O)(=O)c4cccc(Oc5ccccc5)c4)cc3F)ccnc2cc1OCCCN1CCCC(C)C1 (stereo not shown) [Example 59]
Completion: 0 to 20%
